The origin of these recorded values is ChEMBL document CHEMBL5032498.

PROTOCOL_NOTES: Selectivity index, ratio of CC50 for human RD cells to EC50 for Enterovirus A71 USA/CT/2016-19519 infected in human RD cells
Format: toxicity, cell-based
CONDITION_CONTEXT: read-out: Ratio CC50/EC50
MEASUREMENT_NAME: selectivity ratio
Answer with a number only.

Query string: Need selectivity ratio, item Cc1cc(C(=O)NCCN(C)C)c2c(C)nn(C(C)(C)C)c2n1
Result string: 89.7

====

PROTOCOL_NOTES: Selectivity index, ratio of CC50 for african green monkey Vero cells to EC50 for Coxsackievirus B3 in green monkey Vero cells
Type: toxicity, cell-based
CONDITION_CONTEXT: read-out: Ratio CC50/EC50
MEASUREMENT_NAME: selectivity ratio

1) CC(CN(C)C)NC(=O)c1cc(C2CC2)nc2c1cnn2C(C)C (stereo not given)    > 7500
2) Cc1cc(C(=O)NCCN)c2cnn(C(C)C)c2n1    > 78.9

Query string: Need selectivity ratio, item CCn1ncc2c(C(=O)NCCN(C)C)cc(C3CC3)nc21
Result string: > 167

Query string: What do you have for Cc1cc(C(=O)NC2CCN(C)C2)c2cnn(C(C)C)c2n1 (stereo not given) ?
Result string: > 375

Query string: What do you have for CNCCNC(=O)c1cc(C)nc2c1cnn2C(C)C ?
Result string: > 214

Query string: What do you have for Cc1cc(C(=O)NC2CN(C)C2)c2cnn(C(C)C)c2n1 ?
Result string: > 78.9

Query string: What do you have for CC(C)c1cc(C(=O)NCCN(C)C)c2cnn(C(C)C)c2n1 ?
Result string: > 7500

Query string: What do you have for CC(C)n1ncc2c(C(=O)NCCCN(C)C)cc(C3CC3)nc21 ?
Result string: > 500

Query string: What do you have for Cc1cc(C(=O)NCCN(C)C)c2cnn(C(C)C)c2n1 ?
Result string: > 1500

Query string: What do you have for CNCCNC(=O)c1cc(C2CC2)nc2c1cnn2C(C)C ?
Result string: > 500
